The values you see were collected from patent US20210246166A1.

Target: Recombinant human MASP2 enzyme (fragment corresponding to amino acids 297-686, C-terminal His Tag) (human, UniProt O00187 297-686)
Sequence (O00187 other isoform, or with tags, fused parts or gaps limits assumed): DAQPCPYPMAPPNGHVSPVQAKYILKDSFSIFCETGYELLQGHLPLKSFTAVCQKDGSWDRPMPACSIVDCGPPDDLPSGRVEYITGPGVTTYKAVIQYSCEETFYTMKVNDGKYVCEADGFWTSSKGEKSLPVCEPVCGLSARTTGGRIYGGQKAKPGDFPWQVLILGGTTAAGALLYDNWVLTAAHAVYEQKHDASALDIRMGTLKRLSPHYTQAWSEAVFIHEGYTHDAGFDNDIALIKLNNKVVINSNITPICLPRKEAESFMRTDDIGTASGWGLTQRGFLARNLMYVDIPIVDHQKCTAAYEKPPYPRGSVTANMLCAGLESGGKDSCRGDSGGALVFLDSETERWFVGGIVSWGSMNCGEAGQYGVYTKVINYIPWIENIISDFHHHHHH
Assay: cell-based or functional assay
Bridge positions count the residues as written; N and C are the ends. Square brackets hold non-standard residues; d marks the D form. Ends that are not written are not given here. tBuAla = CC(C)(C)C[C@H](N)C(=O)O; 2Pal = N[C@@H](Cc1ccccn1)C(=O)O; 4Pal = N[C@@H](Cc1ccncc1)C(=O)O; Pen = CC(C)(S)[C@H](N)C(=O)O
Catalogue of human MASP2 IC50 readings, one per entry.
Report the figure in nM without appending any unit label.

[2Pal]ICSRS[tBuAla]PPI[Pen]IPD-NH2 (disulfide 3-11; N-terminus assumed; SMILES CC[C@H](C)[C@H](NC(=O)[C@@H](N)Cc1ccccn1)C(=O)N[C@H]1CSSC(C)(C)[C@@H](C(=O)N[C@H](C(=O)N2CCC[C@H]2C(=O)N[C@@H](CC(=O)O)C(N)=O)[C@@H](C)CC)NC(=O)[C@H]([C@@H](C)CC)NC(=O)[C@@H]2CCCN2C(=O)[C@@H]2CCCN2C(=O)[C@H](CC(C)(C)C)NC(=O)[C@H](CO)NC(=O)[C@H](CCCNC(=N)N)NC(=O)[C@H](CO)NC1=O) [(2-Pal)-IC+SRS-((tBu)A)-PPI-(Pen)+IPD-NH2] : 68

Item [4Pal]ICSRS[tBuAla]PPI[Pen]IPD-NH2 (disulfide 3-11; N-terminus assumed; SMILES CC[C@H](C)[C@H](NC(=O)[C@@H](N)Cc1ccncc1)C(=O)N[C@H]1CSSC(C)(C)[C@@H](C(=O)N[C@H](C(=O)N2CCC[C@H]2C(=O)N[C@@H](CC(=O)O)C(N)=O)[C@@H](C)CC)NC(=O)[C@H]([C@@H](C)CC)NC(=O)[C@@H]2CCCN2C(=O)[C@@H]2CCCN2C(=O)[C@H](CC(C)(C)C)NC(=O)[C@H](CO)NC(=O)[C@H](CCCNC(=N)N)NC(=O)[C@H](CO)NC1=O) [(4-Pal)-IC+SRS-((tBu)A)-PPI-(Pen)+IPD-NH2] : provide human MASP2 IC50 65
